Data provenance: PubChem BioAssay (NCI)

System: HCT-15 colon
Test: NCI-60 one-dose screen, 48 h (100 = growth as untreated, 0 = no growth, -100 = all killed)
Settings: 10 µM
The panel holds about 83,000 compounds, 20% with a hit somewhere; the sample as a whole holds those more often.
PROPERTY: growth (%)
Answers are plain numbers, in %.

Previously resolved entries follow.
CC1(C)CC[C@]2(C(=O)Nc3ccccc3)CC[C@]3(C)C(=CC[C@@H]4[C@@]5(C)CC[C@H](N)C(C)(C)[C@@H]5CC[C@]43C)[C@H]2C1 ... -71.4
C=C(C)[C@@H]1CC[C@]2(C(=O)OC)CC[C@]3(C)[C@H](CC[C@@H]4[C@@]5(C)CC[C@H](N)C(C)(C)[C@@H]5CC[C@]43C)[C@@H]12 ... -97.2
CC1(c2ccccc2)NC(=O)N(CC(=O)Nc2ccc(C(=O)/C=C/c3ccccc3)cc2)C1=O (stereo not given) ... 2.92

For every record below, what is its growth?
1. CN1CCN(c2ccc(Nc3nc(NCCCNC(=O)c4ccc(Cl)cc4)c4sccc4n3)cc2)CC1
2. Nc1nc(-c2ccccc2)cc(-c2cc3ccccc3nc2Cl)n1
3. COc1cccc(-c2nn(-c3ccccc3)cc2-c2ccnc(NCCCNC(=O)Nc3ccc(F)cc3)c2)c1
4. CCCn1c(=O)c2[nH]c(-c3ccc(OCc4nc5ccc(C(F)(F)F)cc5[nH]4)cc3)nc2n(CCC)c1=O
5. Nc1n[nH]c2cccc(C#Cc3cccc(NC(=O)Nc4cc(C(F)(F)F)cc(C(F)(F)F)c4)c3)c12

stdout:
26.8
55.9
-16.3
23.1
-81.8

For every record below, what is its growth?
1. COc1ccc(-c2cc(-c3cc(C(=O)c4ccccc4)n4ccc(C)cc34)nc(N)c2C#N)cc1
2. COc1ccc(NC(=O)Cn2c(/C=C/c3ccc(N(C)C)cc3)nc3ccccc3c2=O)cc1

stdout:
1: 78; 2: 57
